- target desc: CD3ε homodimer protein (human, UniProt P07766 23-126, limits assumed)
- Sequence (P07766 23-126 limits assumed): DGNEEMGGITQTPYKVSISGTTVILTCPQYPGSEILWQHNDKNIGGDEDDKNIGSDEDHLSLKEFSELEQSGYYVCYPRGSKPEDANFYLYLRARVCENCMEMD
- measurement notes: SPR, immobilized CD3ε homodimer;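 further: biacore T200 surface plasmon resonance at 25 °C, antibody variants flowed as analytes over amine-coupled CD3ε homodimer on a CM4 chip, variant binding amount divided by that of GLS3000 antibody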
attribute measured: ratio of amounts bound (vs GLS3000)
API note: the answer field is a bare number with no unit suffix.

Consider the binder GLS3000 Q90P (antibody, name in Kabat numbering, V domains shown, one-arm format as m2) VH: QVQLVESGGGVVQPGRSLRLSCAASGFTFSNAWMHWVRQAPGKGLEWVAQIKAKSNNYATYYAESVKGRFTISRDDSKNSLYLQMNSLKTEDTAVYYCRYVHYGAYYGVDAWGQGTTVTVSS VL: DIVMTQSPLSLPVTPGEPASISCRSSQSLVHSNRNTYLHWYQQKPGQAPRLLIYKVSNRFSGVPDRFSGSGSGTDFTLKISRVEAEDVGVYYCGPGTQVPYTFGQGTKLEIK and give its measured ratio of amounts bound (vs GLS3000). 0.27

# repeat for GLS3000 N30P (antibody, name in Kabat numbering, V domains shown, one-arm format as m2) VH: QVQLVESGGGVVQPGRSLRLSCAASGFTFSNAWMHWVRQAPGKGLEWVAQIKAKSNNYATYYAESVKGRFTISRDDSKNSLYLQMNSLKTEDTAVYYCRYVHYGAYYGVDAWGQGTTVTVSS VL: DIVMTQSPLSLPVTPGEPASISCRSSQSLVHSNRPTYLHWYQQKPGQAPRLLIYKVSNRFSGVPDRFSGSGSGTDFTLKISRVEAEDVGVYYCGQGTQVPYTFGQGTKLEIK 0.31

Next record, please: GLS3000 S27eK (antibody, name in Kabat numbering, V domains shown, one-arm format as m2) VH: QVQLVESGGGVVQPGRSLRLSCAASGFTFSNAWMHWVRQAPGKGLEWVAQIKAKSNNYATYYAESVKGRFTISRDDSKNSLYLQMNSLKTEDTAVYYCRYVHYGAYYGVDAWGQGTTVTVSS VL: DIVMTQSPLSLPVTPGEPASISCRSSQSLVHKNRNTYLHWYQQKPGQAPRLLIYKVSNRFSGVPDRFSGSGSGTDFTLKISRVEAEDVGVYYCGQGTQVPYTFGQGTKLEIK 1.59
